System: 786-0 renal
Test: NCI tumour cell line growth inhibition, 48 h
Field: TGI. Provide a value for each of the molecules that follow.

Example cases with answers are listed next.
molecule CC1=C(C(=O)NC2CCCCC2)CC(C(=O)NC2CCCCC2)=C(C)N1 , TGI observed: > 100 µM

molecule O=c1nc(-c2ccccc2)c2c3c(cccn13)CCC2 , TGI observed: > 100 µM

molecule c1c(N2CCOCC2)ssc1=[N+]1CCOCC1 , TGI observed: > 100 µM

Your task in this section: give TGI for each listed record.
1. NCCCCNCCCNC(=O)CNC(=O)CC(O)C(N)CCCC(NC(=O)C(CN)NC(=O)C(O)CNC(=O)CC(N)c1ccc(O)cc1)C(=O)O (stereo not given)
2. CC(C)(C)c1cc(/C=C2/NC(=O)NC2=O)cc(C(C)(C)C)c1O
3. CSc1ccc(C2=Nn3c(nnc3-c3ccc(F)c(Cl)c3)SC2)cc1
4. O=C1N/N=C\c2ccc(cc2)OCc2cccc(n2)COc2ccc(cc2)/C=N\NC1=O
5. Cc1cc(S(=O)(=O)Nc2n[nH]c(Nc3ccccc3)n2)c(SCC(=O)O)cc1Cl
6. COc1cc(Nc2ccnc(N3CCN(c4ccnc5cc(Cl)ccc45)CC3)n2)cc(OC)c1
7. O=C1NC(=S)NC(=O)C1C(c1ccc(Cl)cc1)C1C(=O)NC(=S)NC1=O

Solution:
1. > 10 µM
2. 33.3 µM
3. 32 µM
4. > 25 µM
5. > 100 µM
6. 4.6 µM
7. > 100 µM
